Readings of pIC50 for the listed compounds
- Subject of test: GSK3α (GST-full length GSK3α) (Homo sapiens (Human), UniProt P49840)
- Sequence (P49840 whole entry): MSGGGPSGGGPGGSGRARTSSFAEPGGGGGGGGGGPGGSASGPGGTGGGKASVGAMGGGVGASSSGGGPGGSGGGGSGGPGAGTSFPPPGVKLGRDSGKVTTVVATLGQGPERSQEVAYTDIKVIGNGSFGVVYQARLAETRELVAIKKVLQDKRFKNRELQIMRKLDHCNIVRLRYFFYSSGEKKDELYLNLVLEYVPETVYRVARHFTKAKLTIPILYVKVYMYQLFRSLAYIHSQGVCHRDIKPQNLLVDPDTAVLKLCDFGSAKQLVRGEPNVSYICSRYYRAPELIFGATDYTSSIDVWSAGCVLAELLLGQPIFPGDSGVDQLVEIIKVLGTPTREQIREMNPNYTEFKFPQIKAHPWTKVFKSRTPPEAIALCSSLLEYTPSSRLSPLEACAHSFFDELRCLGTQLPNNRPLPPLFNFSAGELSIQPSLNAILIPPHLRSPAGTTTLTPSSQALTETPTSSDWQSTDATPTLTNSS
- Measurement notes: GSK3α TR-FRET kinase assay
- Assay type: biochemical
- Experimental setup: 1 nM GSK3α, 4 μM ATP, 30 minute preincubation, Table 16; read-out: GSK3-A TR-FRET BIOCHEMICAL (TR-FRET); IC50
pIC50: −log10 of the molar value.

Worked cases, answers included:
[
  {
    "Compound": "CC[C@]1(c2cccc(-c3cnn(CCOC)c3)c2)C2=C(CC(C)(C)CC2=O)Nc2n[nH]c(C)c21 [Compound 913042]",
    "pIC50": "< 5.30"
  },
  {
    "Compound": "CC1(C)CC(=O)C2=C(C1)Nc1n[nH]cc1C21CN(CC2CCOCC2)C1 [Compound 943545]",
    "pIC50": "< 5.30"
  }
]

The record that follows has no pIC50 shown yet.
Query: For the compound CC[C@]1(c2cccc(-c3cnn(C)c3F)c2)C2=C(CC(C)(C)NC2=O)Nc2n[nH]cc21 [Compound 950562] , what pIC50 is on record?
Response: ≥ 7.00

----------
- Subject of test: GSK3α (GST-full length GSK3α) (Homo sapiens (Human), UniProt P49840)
- Measurement notes: GSK3α TR-FRET kinase assay
- Format: biochemical
- Experimental setup: 1 nM GSK3α, 4 μM ATP, 30 minute preincubation, Table 16; read-out: GSK3-A TR-FRET BIOCHEMICAL (TR-FRET); IC50
Value kind: IC50

Some compounds with known IC50 results, for comparison:
[
  {
    "Compound": "O=C1CC2(CCOC2)CC2=C1C1(CCOCC1)c1c[nH]nc1N2 (stereo not drawn)",
    "Subject of test": "GSK3α (GST-full length GSK3α) (Homo sapiens (Human), UniProt P49840)",
    "Assay value": "≤ 100 nM"
  },
  {
    "Compound": "CC[C@]1(c2cccc(C3CC3)c2)C2=C(CC(C)(C)NC2=O)Nc2n[nH]cc21 [Compound 950828]",
    "Subject of test": "GSK3α (GST-full length GSK3α) (Homo sapiens (Human), UniProt P49840)",
    "Assay value": "≤ 100 nM"
  },
  {
    "Compound": "CC[C@]1(c2cccc(-c3ccnc(C)c3)c2)C2=C(CC3(CCC3)NC2=O)Nc2n[nH]cc21",
    "Subject of test": "GSK3α (GST-full length GSK3α) (Homo sapiens (Human), UniProt P49840)",
    "Assay value": "≤ 100 nM"
  }
]

Query: # input compound: CC[C@@]1(c2cccc(C(F)(F)F)c2)C2=C(C[C@H](C)N(c3cnc(OC)nc3)C2=O)Nc2n[nH]cc21 ; wanted: its IC50
Response: 100 to 1000 nM

Query: Cool, now CC[C@]1(c2cccc(-c3cc(C)nc4c3cnn4C)c2)C2=C(CC(C)(C)NC2=O)Nc2n[nH]cc21
Response: 1000 to 5000 nM

Query: Do the same for CC[C@@]1(c2cccc(-c3ccnn3-c3ccc(F)cc3)c2)C2=C(CC(C)(C)NC2=O)Nc2n[nH]cc21 please
Response: > 5000 nM

----------
- Subject of test: GSK3b (GST-full length GSK3b) (Homo sapiens (Human))
- Sequence (P49841 whole entry): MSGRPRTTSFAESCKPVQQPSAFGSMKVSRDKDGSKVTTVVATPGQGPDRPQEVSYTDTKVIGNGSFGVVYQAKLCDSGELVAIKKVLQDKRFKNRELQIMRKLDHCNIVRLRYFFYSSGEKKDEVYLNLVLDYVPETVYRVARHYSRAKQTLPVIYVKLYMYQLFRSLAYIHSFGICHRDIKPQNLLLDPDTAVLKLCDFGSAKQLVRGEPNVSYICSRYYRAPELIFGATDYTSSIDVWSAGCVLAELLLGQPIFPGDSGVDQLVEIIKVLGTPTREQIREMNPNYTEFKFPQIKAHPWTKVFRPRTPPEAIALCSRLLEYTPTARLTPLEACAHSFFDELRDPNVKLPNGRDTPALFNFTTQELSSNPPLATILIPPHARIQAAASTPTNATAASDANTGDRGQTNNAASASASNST
- Measurement notes: GSK3b TR-FRET kinase assay
- Format: biochemical
- Experimental setup: 1 nM GSK3b, 2 μM ATP, 30 minute preincubation; geometric mean; read-out: GSK3-B TR-FRET BIOCHEMICAL (TR-FRET); GMean; IC50
Known IC50 of a selection of molecules

// solved cases for IC50 follow
[
  {
    "Molecule": "CCC1(c2cccc(OCCOC)c2)C2=C(CC(C)(C)CC2=O)Nc2n[nH]cc21 (stereo not shown)",
    "IC50": "> 1670 nM"
  },
  {
    "Molecule": "CC1(C)CC(=O)C2=C(C1)Nc1[nH]nc(C3(C(F)(F)F)CC3)c1C21CCc2c(F)cccc21 (stereo not shown)",
    "IC50": "100 to 1000 nM"
  }
]

Query: Please provide the recorded IC50 for CCC1(c2cccc(C)c2)C2=C(CC(C)(C)CC2=O)Nc2n[nH]cc21 (stereo not shown) [Compound 785738] , tested on GSK3b (GST-full length GSK3b) (Homo sapiens (Human)).
Response: 100 to 1000 nM

Query: Also check CC[C@]1(c2cccc(S(=O)(=O)C(C)C)c2)C2=C(CC(C)(C)NC2=O)Nc2n[nH]c(C(F)(F)F)c21
Response: ≤ 100 nM
